Target: HLA-B*27:05
Assay: IEDB peptide-MHC binding, purified MHC/competitive/fluorescence; filed as Kd, often an IC50 or EC50 that approximates it; bounds were set here for any values at or beyond the usual limits of such assays
Conditions: source organism: Giardia lamblia ATCC 50803
pKd: −log10 of the molar value.
Readout name: pKd

Ask | May I ask what pKd has been recorded for MTYLDGHPV ?
Reply | ≤ 5.30

====

So I've got a bunch of sequences here, and I need their pKd values.
Molecular target: HLA-A*11:01
Test: IEDB peptide-MHC binding, purified MHC/direct/fluorescence; filed as Kd, often an IC50 or EC50 that approximates it; bounds were set here for any values at or beyond the usual limits of such assays
Conditions: source organism: Homo sapiens
Give bare numbers, as −log10 of the molar value.

EVDPIGHLY ... 5.47

Ask | May I ask what pKd has been recorded for ISLICGHSY ?
Reply | 5.05
